# Method Description: Phase I trial plasma pharmacokinetics, two-compartment model (PK Solver 2.0)
# Assay type: in vivo
# Condition Context: human, oral, Table 1B third line, Patient 115-002-001, Day 15 as printed, 20 mg
# Protocol: A different pharmacokinetic modeling program was used in the publication PK Solver 2.0 freeware (https://www.boomer.org/boomer/software/pksolver.zip; accessed 26 Nov. 2021) was used to determine the single dose pharmacokinetic parameters using a two-compartment model. […] As noted above, non-compartmental pharmacokinetic analysis was performed using Phoenix WinNonlin 8.3 using trapezoidal rule and linear up log down methodology. WinNonlin was allowed to pick optimal terminal phases. […]
Recorded Endpoint: Cmax
Please state the value followed by its unit.

Name the recorded Cmax for Cc1c(NS(=O)(=O)c2c(Cl)cc(-c3ccnc(N4CCNCC4)c3)cc2Cl)c(CC(C)C)nn1C .
278 ng/mL
